System: Hydroxyapatite
Assay: Binding affinity to bone mineral hydroxyapatite assessed as binding index after 24 hrs by UV-spectrophotometer analysis relative to 5-fluorouracil
Set-up: concentration or dose not given beside the values
Residues, ends and D or L forms follow the SMILES beside them. *: point of attachment. Acetyl(5-fluorouracil-1-yl) = O=C(Cn1cc(F)c(=O)[nH]c1=O)*; X1 = O=C(CCC(=O)*)OCn1cc(F)c(=O)[nH]c1=O
The following compounds are listed with their measured Activity values.
Respond with the bare value in %.

Check out these entries, answers already filled in.
Request the reported Activity associated with `CN(C)[C@@H]1C(O)=C(C(N)=O)C(=O)[C@@]2(O)C(O)=C3C(=O)c4c(O)cccc4[C@@](C)(O)[C@H]3C[C@@H]12`
56.2

Request the reported Activity associated with O=C(O)C[C@H](NC(=O)[C@H](CC(=O)O)NC(=O)[C@H](CC(=O)O)NC(=O)[C@H](CC(=O)O)NC(=O)[C@H](CC(=O)O)NC(=O)[C@H](CC(=O)O)NC(=O)CCC(=O)OCn1cc(F)c(=O)[nH]c1=O)C(=O)O (X1-DDDDDD-OH)
69.7

Request the reported Activity associated with O=C(O)C[C@H](NC(=O)[C@H](CC(=O)O)NC(=O)[C@H](CC(=O)O)NC(=O)[C@H](CC(=O)O)NC(=O)CCC(=O)OCn1cc(F)c(=O)[nH]c1=O)C(=O)O (X1-DDDD-OH)
42.5

---
Request the reported Activity associated with O=C(O)C[C@H](NC(=O)[C@H](CC(=O)O)NC(=O)[C@H](CC(=O)O)NC(=O)[C@H](CC(=O)O)NC(=O)[C@H](CC(=O)O)NC(=O)[C@H](CC(=O)O)NC(=O)Cn1cc(F)c(=O)[nH]c1=O)C(=O)O ({Acetyl(5-fluorouracil-1-yl)}-DDDDDD-OH)
62.7

Request the reported Activity associated with O=C(O)C[C@H](NC(=O)[C@H](CC(=O)O)NC(=O)[C@H](CC(=O)O)NC(=O)[C@H](CC(=O)O)NC(=O)Cn1cc(F)c(=O)[nH]c1=O)C(=O)O ({Acetyl(5-fluorouracil-1-yl)}-DDDD-OH)
40.2

Request the reported Activity associated with O=C(O)C[C@H](NC(=O)[C@H](CC(=O)O)NC(=O)[C@H](CC(=O)O)NC(=O)[C@H](CC(=O)O)NC(=O)[C@H](CC(=O)O)NC(=O)Cn1cc(F)c(=O)[nH]c1=O)C(=O)O ({Acetyl(5-fluorouracil-1-yl)}-DDDDD-OH)
19.8

Request the reported Activity associated with `O=c1[nH]cc(F)c(=O)[nH]1`
0

Request the reported Activity associated with O=C(O)C[C@H](NC(=O)[C@H](CC(=O)O)NC(=O)[C@H](CC(=O)O)NC(=O)[C@H](CC(=O)O)NC(=O)[C@H](CC(=O)O)NC(=O)CCC(=O)OCn1cc(F)c(=O)[nH]c1=O)C(=O)O (X1-DDDDD-OH)
25.5

* * *

Organism: Mus musculus
Test: Cmax in mouse
Assay type: ADME, organism-based
Details: in vivo
Residues, ends and D or L forms follow the SMILES beside them. *: point of attachment. Acetyl(5-fluorouracil-1-yl) = O=C(Cn1cc(F)c(=O)[nH]c1=O)*; X1 = O=C(CCC(=O)*)OCn1cc(F)c(=O)[nH]c1=O
valueKind: Cmax (µg/mL)
Respond with the bare value in µg/mL.

Request the reported Cmax associated with O=C(O)C[C@H](NC(=O)[C@H](CC(=O)O)NC(=O)[C@H](CC(=O)O)NC(=O)[C@H](CC(=O)O)NC(=O)[C@H](CC(=O)O)NC(=O)[C@H](CC(=O)O)NC(=O)Cn1cc(F)c(=O)[nH]c1=O)C(=O)O ({Acetyl(5-fluorouracil-1-yl)}-DDDDDD-OH)
42400

---
Request the reported Cmax associated with O=C(O)C[C@H](NC(=O)[C@H](CC(=O)O)NC(=O)[C@H](CC(=O)O)NC(=O)[C@H](CC(=O)O)NC(=O)[C@H](CC(=O)O)NC(=O)[C@H](CC(=O)O)NC(=O)CCC(=O)OCn1cc(F)c(=O)[nH]c1=O)C(=O)O (X1-DDDDDD-OH)
51100

* * *

Tested on: Hydroxyapatite
Experiment: Binding affinity to bone mineral hydroxyapatite assessed as binding index after 0.5 hrs by UV-spectrophotometer analysis relative to 5-fluorouracil
Design: concentration or dose not given beside the values
Residues, ends and D or L forms follow the SMILES beside them. *: point of attachment. Acetyl(5-fluorouracil-1-yl) = O=C(Cn1cc(F)c(=O)[nH]c1=O)*; X1 = O=C(CCC(=O)*)OCn1cc(F)c(=O)[nH]c1=O
The following compounds are listed with their measured Activity values.
Respond with the bare value in %.

Check out these entries, answers already filled in.
Request the reported Activity associated with O=C(O)C[C@H](NC(=O)[C@H](CC(=O)O)NC(=O)[C@H](CC(=O)O)NC(=O)[C@H](CC(=O)O)NC(=O)CCC(=O)OCn1cc(F)c(=O)[nH]c1=O)C(=O)O (X1-DDDD-OH)
16.6

Request the reported Activity associated with O=C(O)C[C@H](NC(=O)[C@H](CC(=O)O)NC(=O)[C@H](CC(=O)O)NC(=O)[C@H](CC(=O)O)NC(=O)[C@H](CC(=O)O)NC(=O)CCC(=O)OCn1cc(F)c(=O)[nH]c1=O)C(=O)O (X1-DDDDD-OH)
13.4

Request the reported Activity associated with O=C(O)C[C@H](NC(=O)[C@H](CC(=O)O)NC(=O)[C@H](CC(=O)O)NC(=O)[C@H](CC(=O)O)NC(=O)Cn1cc(F)c(=O)[nH]c1=O)C(=O)O ({Acetyl(5-fluorouracil-1-yl)}-DDDD-OH)
14.3

Request the reported Activity associated with O=C(O)C[C@H](NC(=O)[C@H](CC(=O)O)NC(=O)[C@H](CC(=O)O)NC(=O)[C@H](CC(=O)O)NC(=O)[C@H](CC(=O)O)NC(=O)[C@H](CC(=O)O)NC(=O)CCC(=O)OCn1cc(F)c(=O)[nH]c1=O)C(=O)O (X1-DDDDDD-OH)
37.8

Request the reported Activity associated with O=C(O)C[C@H](NC(=O)[C@H](CC(=O)O)NC(=O)[C@H](CC(=O)O)NC(=O)[C@H](CC(=O)O)NC(=O)[C@H](CC(=O)O)NC(=O)Cn1cc(F)c(=O)[nH]c1=O)C(=O)O ({Acetyl(5-fluorouracil-1-yl)}-DDDDD-OH)
11.6

---
Request the reported Activity associated with `O=c1[nH]cc(F)c(=O)[nH]1`
0

Request the reported Activity associated with O=C(O)C[C@H](NC(=O)[C@H](CC(=O)O)NC(=O)[C@H](CC(=O)O)NC(=O)[C@H](CC(=O)O)NC(=O)[C@H](CC(=O)O)NC(=O)[C@H](CC(=O)O)NC(=O)Cn1cc(F)c(=O)[nH]c1=O)C(=O)O ({Acetyl(5-fluorouracil-1-yl)}-DDDDDD-OH)
31.4

Request the reported Activity associated with `CN(C)[C@@H]1C(O)=C(C(N)=O)C(=O)[C@@]2(O)C(O)=C3C(=O)c4c(O)cccc4[C@@](C)(O)[C@H]3C[C@@H]12`
24.1

* * *

The following molecules are listed with their measured half-life values.
Test: Half life in mouse
Type: ADME, organism-based
Conditions: in vivo
Residues, ends and D or L forms follow the SMILES beside them. *: point of attachment. Acetyl(5-fluorouracil-1-yl) = O=C(Cn1cc(F)c(=O)[nH]c1=O)*; X1 = O=C(CCC(=O)*)OCn1cc(F)c(=O)[nH]c1=O

Check out these entries, answers already filled in.
Request the reported half-life associated with O=c1[nH]cc(F)c(=O)[nH]1 [FLUOROURACIL]
4.36 h

Request the reported half-life associated with O=C(O)C[C@H](NC(=O)[C@H](CC(=O)O)NC(=O)[C@H](CC(=O)O)NC(=O)[C@H](CC(=O)O)NC(=O)[C@H](CC(=O)O)NC(=O)[C@H](CC(=O)O)NC(=O)CCC(=O)OCn1cc(F)c(=O)[nH]c1=O)C(=O)O (X1-DDDDDD-OH)
6.75 h

---
Request the reported half-life associated with O=C(O)C[C@H](NC(=O)[C@H](CC(=O)O)NC(=O)[C@H](CC(=O)O)NC(=O)[C@H](CC(=O)O)NC(=O)[C@H](CC(=O)O)NC(=O)[C@H](CC(=O)O)NC(=O)Cn1cc(F)c(=O)[nH]c1=O)C(=O)O ({Acetyl(5-fluorouracil-1-yl)}-DDDDDD-OH)
4.36 h
